Target: COUP transcription factor 2 (Homo sapiens) (UniProt P24468)
Sequence (P24468 whole entry, looked up): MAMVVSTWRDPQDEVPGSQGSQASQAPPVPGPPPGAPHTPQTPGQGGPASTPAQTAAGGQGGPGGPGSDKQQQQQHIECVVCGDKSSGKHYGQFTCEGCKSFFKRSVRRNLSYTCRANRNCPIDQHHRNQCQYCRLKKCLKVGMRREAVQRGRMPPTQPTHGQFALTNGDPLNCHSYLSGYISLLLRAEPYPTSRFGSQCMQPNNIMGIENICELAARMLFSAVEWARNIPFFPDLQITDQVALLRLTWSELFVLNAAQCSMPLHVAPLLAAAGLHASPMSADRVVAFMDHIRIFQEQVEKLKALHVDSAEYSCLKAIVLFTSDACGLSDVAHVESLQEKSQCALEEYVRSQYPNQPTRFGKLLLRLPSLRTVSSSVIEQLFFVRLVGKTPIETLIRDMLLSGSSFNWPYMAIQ
Test: COUP-TFII reporter suppression in human cells – cell-based, luciferase reporter, HEK293T, luminescence, primary screen (AID 686940);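 also: cells cotransfected with COUP-TFII expression vector driving the NGFI-A reporter; 0% = median of COUP-TF2 test wells and 100% = reporter-only cells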
Conditions: HEK293T NGFI-A luciferase reporter, at 8.6 µM, hits give high values
The campaign covered roughly 370,000 compounds. About 2,600 (0.7%) were called active. This is one part of a sample in which actives are shown more often than they occur.
Items are presented alongside their recorded inhibition.
assay.metric: inhibition (%)

| compound | recorded.number |
| --- | --- |
| Cc1ccc(S(=O)(=O)N2CCC3(CC2)OCCO3)c(C)c1 | 0.83 |
| O=C(NCc1ccc(Cl)cc1)C1CCCN(c2nc3ccccc3o2)C1 (stereo not drawn) | 18.9 |
| O=C(Nc1ccc(CN2CCOCC2)cc1)c1cc(Cl)ccc1Cl | 5.94 |
| COC(=O)[C@]12C[C@H](CC(=O)NCc3cccs3)C(=O)N(CCc3ccc(OC)c(OC)c3)C1=C[C@H](C(C)C)O[C@@H]2C1CC1 | 17.9 |
| Clc1ncn(CCOc2ccccc2)c1Cl | 6.16 |
| Cn1ccc(=NC=C(C#N)C#N)c2ccccc21 | -6.63 |
| CC(C)N1CCCCC(NC(=O)C(C)(C)C)C1=O (stereo not drawn) | 0.07 |
| COc1ccc(-c2csc3ncnc(N4CCN(S(=O)(=O)c5cccc(F)c5)CC4)c23)cc1 | -7.61 |
| O=C(CNS(=O)(=O)c1ccccc1F)N1CCN(c2ccccn2)CC1 | 8.7 |
| CN1CCN(Cc2nc3cc(NC(=O)COc4ccc([N+](=O)[O-])cc4)ccc3n2C)CC1 | 10.4 |
| C=CCN(Cc1ccc2c(c1)OCO2)C(C#CC1CC1)C(C)(C)C (stereo not drawn) | 9.73 |
| CCc1cc2c(SCC(=O)Nc3ncc(Cl)c(C)c3Cl)ncnc2s1 | 12.8 |
| COC(=O)[C@]12C[C@H](CC(=O)NCC34CC5CC(CC(C5)C3)C4)C(=O)N(Cc3ccc(Cl)cc3Cl)C1=C[C@H](COCc1ccccc1)O[C@@H]2C | -8.65 |
| CCc1cc2c(NC(Cc3ccccc3)C(=O)O)ncnc2s1 (stereo not drawn) | -1.84 |
| COc1ccccc1CNC(=O)CCn1c(=O)sc2ccccc21 | 4.05 |
| O=C1CCC2(CCC(c3ccc(Cl)cc3)CC2)N1CCO (stereo not drawn) | 20.9 |
| COc1ccc(Cn2cc(CN3[C@@H](CC(C)C)COc4cc(Br)ccc4S3(=O)=O)nn2)cc1 | 0.76 |
| CCCNC(=O)C1(C)CCN1C(=O)Cc1ccc(-c2ccccc2)cc1 (stereo not drawn) | 27.8 |
| COc1ccc(Cn2c(=O)sc3ccccc32)cc1OC | 48.4 |
| CC(=O)N1CCCc2cc(S(=O)(=O)N3CCCC(C(=O)N4CCN(c5cccc(Cl)c5)CC4)C3)ccc21 (stereo not drawn) | 76.9 |
| Cc1ccc(C2=CCN(C)C(=O)N2c2ccc(Cl)cc2)cc1 | -1.56 |
| CC1(C)CC(N2CCN(C(c3ccccc3)c3ccccc3)CC2)=CC(=[N+]2CCCCC2)C1 | 85.2 |
| C=CCN1C(=O)[C@@H](CC(=O)N2CCN(C(=O)OCC)CC2)[C@]2(C(=O)OCC)CCCCC/C=C/12 | 3.11 |
| O=C(c1cc(C(=O)N2CCN(c3ccc(F)cc3)CC2)cc([N+](=O)[O-])c1)N1CCN(c2ccc(F)cc2)CC1 | 58.1 |
| Cc1ccc(-n2c(SCC(=O)Nc3ccc(S(=O)(=O)Nc4nccs4)cc3)nnc2-c2cccnc2)cc1 | 8.88 |
| Cc1ccc(C)c(S(=O)(=O)N2CCN(c3ncnc4sccc34)CC2)c1 | 61.2 |
| CCOC(=O)[C@@]12CN(C(=O)OC(C)(C)C)CC=C1N(Cc1ccc(OC)cc1)C(=O)[C@H]2CC(=O)NCc1ccc(OC)c(OC)c1 | -0.1 |
| CC(CCN1CCC(C(O)(c2ccccc2)c2ccccc2)CC1)Oc1ccc(C(F)(F)F)cc1 (stereo not drawn) | 9.47 |

The origin of these recorded values is PubChem BioAssay AID686940.
